system: P. aeruginosa; test: AK assay 384-well format, Prestwick library screening; format: cell-based, Pseudomonas aeruginosa; conditions: Pseudomonas aeruginosa, 3 h; 50 μM final drug concentration; planktonic; cutoff for positive 3-fold increase; read-out: AK-based Prestwick Library Screening Results, P. aeruginosa (fold increase in extracellular AK activity)
Where a name gives a salt, the structure may show the parent alone.
Recorded fold induction at 50 µM for the following molecules

These recorded examples may help you get a feel for the data.
MOLECULE	OBSERVED MEASUREMENT
O=C1C(O)=C([C@H]2CC[C@H](c3ccc(Cl)cc3)CC2)C(=O)c2ccccc21	1
c1ccc(C2CN3CCSC3=N2)cc1 (centres unmarked) [Tetramisole hydrochloride]	1.2

Find the measured fold induction at 50 µM of CN1CCCCC1CCN1c2ccccc2Sc2ccc([S+](C)[O-])cc21 (centres unmarked) [Mesoridazine besylate] and report it.
1.2

Find the measured fold induction at 50 µM of c1ccc2[nH]c(-c3cscn3)nc2c1 and report it.
0.6

* * *

system: Staphylococcus aureus; experiment: MIC testing; assay type: cell-based; details: Staphylococcus aureus
Recorded MIC for the following compounds

These recorded examples may help you get a feel for the data.
SMILES	MIC
CO/N=C(\C(=O)N[C@@H]1C(=O)N2C(C(=O)O)=C(CSc3nc(=O)c(=O)[nH]n3C)CS[C@H]12)c1csc(N)n1	2 mg/L
CN(C)c1ccc(O)c2c1C[C@H]1C[C@H]3[C@H](N(C)C)C(O)=C(C(N)=O)C(=O)[C@@]3(O)C(O)=C1C2=O	8 mg/L
CC1(C)S[C@@H]2[C@H](NC(=O)[C@H](N)c3ccccc3)C(=O)N2[C@H]1C(=O)O	2 mg/L
NC[C@H]1O[C@H](O[C@H]2[C@H](O)[C@@H](O[C@H]3O[C@H](CO)[C@@H](O)[C@H](N)[C@H]3O)[C@H](N)C[C@@H]2N)[C@H](O)[C@@H](O)[C@@H]1O	16 mg/L

Next item in the queue.
Find the measured MIC of Cc1cc(NS(=O)(=O)c2ccc(N)cc2)no1 and report it.
2 mg/L

* * *

test system: A. baumannii strain 98-37-09; assay: AK assay 384-well format, Prestwick library screening; assay type: cell-based, Acinetobacter baumannii; conditions: Acinetobacter baumannii, 983709, 3 h, 50 μM final drug concentration; planktonic; […]; read-out: AK-based Prestwick Library Screening Results, A. baumannii (fold increase in extracellular AK activity)
METRIC NAME: fold induction at 50 µM
Please reply with the value in numeric form only.

These recorded examples may help you get a feel for the data.
COMPOUND	fold induction at 50 µM
c1cncc([C@@H]2CCCCN2)c1 [Anabasine]	0.8
C[C@H]1C(=O)O[C@@H]2CCN3CC=C(COC(=O)[C@](C)(O)[C@]1(C)O)[C@H]23 [Monocrotaline]	1.2
O=c1ccc2cc(O[C@@H]3O[C@H](CO)[C@@H](O)[C@H](O)[C@H]3O)c(O)cc2o1 [Esculin Hydrate]	0.8

Find the measured fold induction at 50 µM of CCC1(CC)C(=O)C=CNC1=O [Pyrithyldione] and report it.
0.5

Find the measured fold induction at 50 µM of C=C(C)[C@@H]1[C@H]2OC(=O)[C@@H]1[C@]1(O)C[C@H]3O[C@]34C(=O)O[C@H]2[C@]14C [Picrotoxinin] and report it.
0.7

* * *

test system: E. faecium; experiment: AK assay 384-well format, Prestwick library screening; type: cell-based, Enterococcus faecium; conditions: Enterococcus faecium, 3 h; 50 μM final drug concentration; cutoff for positive-scoring molecules 3-fold increase; read-out: AK-based Prestwick Library Screening Results, E. faecium (fold increase in extracellular AK activity)
Structures can show the parent of a compound that is named as a salt.
METRIC NAME: fold induction at 50 µM
Please reply with the value in numeric form only.

COMPOUND	METRIC NAME	OBSERVED MEASUREMENT
COc1cc2ccc(=O)oc2cc1O [Scopoletin]	fold induction at 50 µM	0.9
O=C(O)c1ccccc1C(=O)Nc1ccc(S(=O)(=O)Nc2nccs2)cc1 [Phthalylsulfathiazole]	fold induction at 50 µM	1
COCC(=O)Nc1c(I)c(C(=O)NCC(O)CO)c(I)c(C(=O)N(C)CC(O)CO)c1I (stereo not shown) [Iopromide]	fold induction at 50 µM	1

Give fold induction at 50 µM; test system E. faecium; compound OC(CCN1CCCC1)(c1ccccc1)C1CCCCC1 (stereo not shown) [Procyclidine hydrochloride]
1.1

Give fold induction at 50 µM; test system E. faecium; compound C/C=C(/C(=C/C)c1ccc(O)cc1)c1ccc(O)cc1 [Dienestrol]
1.3

Give fold induction at 50 µM; test system E. faecium; compound Cc1cc(CC(=O)O)n(C)c1C(=O)c1ccc(Cl)cc1 [Zomepirac sodium salt]
1.1
